- EXPERIMENTAL_PROTOCOL: Inhibition of Acyl-coenzyme A:cholesterol acyltransferase (unknown origin) assessed as intracellular cholesterol esterification by cell based assay
- CONDITIONS: Homo sapiens; read-out: IC50
PROPERTY_NAME: IC50 (nM)
Give bare numbers, in nM.

# example entries with known answers
CCCCCc1ccc(CN(C(Nc2ccc(N(C)C)cc2)=C2C(=O)OC(C)(C)OC2=O)C(C)CCCCC)cc1 (stereo not drawn); 260
CCCCCC(C)N(Cc1ccc(OCCC(C)C)cc1)C(Nc1ccc(N(C)C)cc1)=C1C(=O)OC(C)(C)OC1=O (stereo not drawn); 210
CCCCCC(C)N(Cc1ccc(OCC(C)C)cc1)C(Nc1ccc(N(C)C)cc1)=C1C(=O)OC(C)(C)OC1=O (stereo not drawn); 90
CCCCCCOc1ccc(NC(=C2C(=O)OC(C)(C)OC2=O)N(Cc2ccc(CC(C)C)cc2)C(C)CCCCC)cc1 (stereo not drawn); 410
CCCCCCOc1ccc(NC(NCCCCCCCCc2ccc(C(C)(C)C)cc2)=C2C(=O)OC(C)(C)OC2=O)cc1; 500

I would be grateful if you could provide IC50 for each of the following entries.
1. COc1ccc(NC(NCc2ccc(C(C)(C)C)cc2)=C2C(=O)OC(C)(C)OC2=O)c(OC)c1
2. CCCCCC(C)N(Cc1ccc(CC(C)C)cc1)C(Nc1ccc(OC)cc1OC)=C1C(=O)OC(C)(C)OC1=O (stereo not drawn)
3. COc1ccc(NC(=C2C(=O)OC(C)(C)OC2=O)N(Cc2ccc(CCC(C)C)cc2)C(CC(C)C)CC(C)C)c(OC)c1

[260, 240, 1300]

* * *

- EXPERIMENTAL_PROTOCOL: Inhibition of Acyl-coenzyme A:cholesterol acyltransferase (unknown origin) assessed as intracellular cholesterol esterification by cell based assay
- CONDITIONS: Homo sapiens; read-out: pIC50 (converted)
I'd appreciate it if you could supply IC50 values for the items below.
Give bare numbers, in nM.

CC(C)CCCC(C)N(Cc1ccc(CC(C)C)cc1)C(Nc1ccc(N(C)C)cc1)=C1C(=O)OC(C)(C)OC1=O (centres undefined); 270
CCCCCc1ccc(CN(C(Nc2ccc(N(C)C)cc2C)=C2C(=O)OC(C)(C)OC2=O)C(C)CCCCC)cc1 (centres undefined); 242
CCCCOc1ccc(NC(=C2C(=O)OC(C)(C)OC2=O)N(Cc2ccc(C(C)(C)C)cc2)C(C)CCCC(C)C)cc1 (centres undefined); 690

Each molecule below has a reported value. Please supply its IC50.
1. COc1ccc(NC(NCCCCCCCCc2ccc(CC(C)C)cc2)=C2C(=O)OC(C)(C)OC2=O)c(OC)c1
2. CCCCCc1ccc(CN(C(Nc2ccc(N(C)C)cc2)=C2C(=O)OC(C)(C)OC2=O)C(C)CCCCC)cc1 (centres undefined)
3. COc1ccc(NC(NCCCCCCCCc2ccc(C(C)(C)C)cc2)=C2C(=O)OC(C)(C)OC2=O)c(OC)c1

1: 910; 2: 260; 3: 899

Please go through the list and note IC50 for each molecule.
1. COc1cc(OC)c(NC(NCCCCCCCCc2ccc(CC(C)(C)C)cc2)=C2C(=O)OC(C)(C)OC2=O)c(OC)c1
2. COc1cc(NC(NCCCCCCCCc2ccc(OCCC(C)C)cc2)=C2C(=O)OC(C)(C)OC2=O)cc(OC)c1OC
3. CC(C)CCOc1ccc(CCCCCCCCNC(Nc2ccc(N(C)C)cc2)=C2C(=O)OC(C)(C)OC2=O)cc1

[700, 3500, 370]
